These measurements were taken from PubChem BioAssay AID1259407.

- System: CCRIS mutagenicity, Ames/micronucleus/aberration tests
- Run Description: CCRIS mutagenicity studies
- Condition Description: Test System: AMES SALMONELLA TYPHIMURIUM; Strain/Indicator: TA100; Metabolic Activation: NONE; Method: STANDARD PLATE
The source made the active and inactive calls. The rule behind the calls is not given here.
Possible outcomes: 1.0 for active, 0.0 for inactive

Compound: CC(Cl)(Cl)Cl
Label Value: 1.0

Compound: Cc1ccc(N=Nc2c(O)ccc3ccccc23)cc1C
Label Value: 0.0

Compound: O=C1CN(/N=C/C=C/c2ccc([N+](=O)[O-])o2)C(=O)N1
Label Value: 1.0

Compound: CNC(=O)c1c(N(C)N=O)ncn1C
Label Value: 0.0

Compound: C=C(C)C1Cc2c(cc(O)c3c(=O)c4ccccc4n(C)c23)O1 (stereo unspecified)
Label Value: 0.0

Compound: O=C(O)/C=C\C(=O)O
Label Value: 0.0

Compound: [Cl][Cr]([Cl])[Cl]
Label Value: 0.0

Compound: Fc1cccc(F)n1
Label Value: 0.0

Compound: CC(=O)[C@]1(O)Cc2c(O)c3c(c(O)c2[C@@H](O[C@H]2C[C@H](N)[C@H](O)[C@H](C)O2)C1)C(=O)c1ccccc1C3=O
Label Value: 1.0

Compound: CC(=O)N1CCC[C@H]1C(=O)N(CC(=O)O)N=O
Label Value: 1.0

Compound: OCNc1ncnc2c1ncn2[C@@H]1O[C@H](CO)[C@@H](O)[C@H]1O
Label Value: 0.0

Compound: CC(C)(c1ccc(OCC(O)CO)cc1)c1ccc(OCC(O)CO)cc1 (stereo unspecified)
Label Value: 0.0

Compound: O=Nc1cccc(-c2ccccc2)c1
Label Value: 1.0

Compound: O=C(O)c1cc(O)c2c(c1)C(=O)c1cccc(O)c1C2=O
Label Value: 0.0

Compound: CS(=O)(=O)n1ncc(Cl)c(Cl)c1=O
Label Value: 1.0

Compound: CC1(C(=O)NCc2ccccc2)CO1 (stereo unspecified)
Label Value: 1.0

Compound: Cc1ccc(N)cc1Cl
Label Value: 0.0

Compound: O=C1C(Cl)=C(Cl)C(=O)C1(Cl)Cl
Label Value: 0.0

Compound: Cc1cc(O)c(C(C)(C)C)cc1Sc1cc(C(C)(C)C)c(O)cc1C
Label Value: 0.0

Compound: COc1cc(Cc2cnc(N)nc2N)cc(OC)c1OC
Label Value: 0.0

Compound: ClCc1cc2c3c(cccc3c1)-c1ccccc1-2
Label Value: 1.0

Compound: Cc1ccc(N)cc1O
Label Value: 0.0

Compound: CCOC(=O)CC(SP(=S)(OC)OC)C(=O)OCC (stereo unspecified)
Label Value: 0.0

Compound: [N-]=[N+]=NCC(O)Cn1cnc2c(N)ncnc21 (stereo unspecified)
Label Value: 1.0

Compound: Cc1ccc(CCC2CO2)cc1 (stereo unspecified)
Label Value: 1.0

Compound: Cc1cc2c(C(C)C)c(O)c(O)c(C=O)c2c(O)c1-c1c(C)cc2c(C(C)C)c(O)c(O)c(C=O)c2c1O
Label Value: 0.0
